Consider the following binders; for each one, report its MFI at 33.3 nM.
Target: T1, human PD-L1, full-length, on CHO cells (human, UniProt Q9NZQ7 19-290)
T1 construct: also called huPD-L1; CD274
T1 sequence (Q9NZQ7 19-290): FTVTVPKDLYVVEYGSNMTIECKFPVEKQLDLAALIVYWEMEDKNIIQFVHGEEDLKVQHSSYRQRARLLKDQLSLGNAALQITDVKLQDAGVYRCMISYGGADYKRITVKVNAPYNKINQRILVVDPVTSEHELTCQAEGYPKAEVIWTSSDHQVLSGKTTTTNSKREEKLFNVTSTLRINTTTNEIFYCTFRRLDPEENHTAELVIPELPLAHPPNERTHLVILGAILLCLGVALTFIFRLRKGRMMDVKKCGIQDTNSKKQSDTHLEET
Experiment: flow cytometry, CHO cells stably expressing PD-L1
Reply numerically in MFI, unit not repeated.

Task: Determine from records and report MFI at 33.3 nM for variant CD80 IgV-Fc E35D/M47L (Fc fusion, not shown: small tags and cut ends; a dimerising Fc or GST) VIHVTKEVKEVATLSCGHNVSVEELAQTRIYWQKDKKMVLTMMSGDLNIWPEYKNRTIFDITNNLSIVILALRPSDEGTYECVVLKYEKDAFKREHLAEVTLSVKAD
Result: 7530

Task: Using the record for variant CD80 IgV-Fc E35D/D46V/M47L/L85Q (Fc fusion, not shown: small tags and cut ends; a dimerising Fc or GST) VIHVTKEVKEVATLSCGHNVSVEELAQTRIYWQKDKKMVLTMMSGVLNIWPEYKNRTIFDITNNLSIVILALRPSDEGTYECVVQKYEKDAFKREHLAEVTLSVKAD , state its measured MFI at 33.3 nM.
Result: 7520
